meta.source: paper PMC11546786

α-Helix reference
- protocol_text: CD spectra, secondary structure by BeStSel
- Assay type: physicochemical
- details: 30 μM SDS as printed, 100 μM peptide, 25 °C
Ends that are not written are not given here.
Note: unit % is implicit; provide only the numeric part.

Please review the following examples before continuing.
LKRVKKRVFKLLKRYWRQLKKPVR-NH2 [SAAP-3] : 100
LKRVWKRKFKLLKRYWRQLKKPVR-NH2 [SAAP-4] : 50.9
LKRVWKRVFKKLKRYWRQLKKPVR-NH2 [SAAP-6] : 84.4

Lab book: α-Helix of LKRKWKRVFKLLKRYWRQLKKPVR-NH2 [SAAP-2] noted as 93.5

Lab book: α-Helix of LKRVWKRVFKLKKRYWRQLKKPVR-NH2 [SAAP-7] noted as 48.3

Lab book: α-Helix of LKRVWKRVFKLLKRYWRKLKKPVR-NH2 [SAAP-10] noted as 100

Lab book: α-Helix of LKRVWKRVFKLLKRYKRQLKKPVR-NH2 [SAAP-9] noted as 100

Lab book: α-Helix of LKRVWKRVKKLLKRYWRQLKKPVR-NH2 [SAAP-5] noted as 100

Lab book: α-Helix of LKRVWKRVFKLLKRYWRQKKKPVR-NH2 [SAAP-11] noted as 100

---

- protocol_text: CD spectra, secondary structure by BeStSel
- Format: physicochemical
- details: 30 μM SDS as printed, 100 μM peptide, 25 °C
Ends that are not written are not given here.
Simple rule here: β-Antiparallel less than 6% is 1, otherwise 0.

These solved cases illustrate the format of a correct answer.
LKRVWKRVFKLLKRYKRQLKKPVR-NH2 [SAAP-9] : 1
LKRVWKRKFKLLKRYWRQLKKPVR-NH2 [SAAP-4] : 0
LKRVWKRVFKLKKRYWRQLKKPVR-NH2 [SAAP-7] : 0
LKRKWKRVFKLLKRYWRQLKKPVR-NH2 [SAAP-2] : 0
LKRVWKRVFKLLKRYWRQLKKPVR-NH2 [SAAP-148] : 0
LKRVWKRVFKKLKRYWRQLKKPVR-NH2 [SAAP-6] : 0

[in] Regarding LKRVWKRVFKLLKRYWRQLKKKVR-NH2 [SAAP-12] , kindly confirm whether its β-Antiparallel is beneath 6%.
[out] 1
